- Details: 313.15 K; 101.3 kPa
Reported Metric: viscosity (mPa·s)
Just the number please, in mPa·s, no unit attached.

INSERT INTO assay_data (smiles_structure, reported_metric, uom, value) VALUES
  ('CCCCCC', 'viscosity', 'mPa·s', 0.274),
  ('CC(C)CO', 'viscosity', 'mPa·s', 2.08),
  ('Cc1ccccc1O', 'viscosity', 'mPa·s', 4.243),
  ('CCC[N+]1(C)CCCCC1.O=S(=O)([N-]S(=O)(=O)C(F)(F)F)C(F)(F)F', 'viscosity', 'mPa·s', 68.5);

(Q) Request the reported viscosity associated with CN(C)CCO
(A) 2.023

(Q) May I ask what viscosity has been recorded for O=C1OCCO1 ?
(A) 1.879

The origin of these recorded values is the CheMixHub viscosity set.
